Each recorded value in this set is attributed to the supplement of paper PMC6555819.

# Test system: LXRb homodimer (NR concentration 270 nM)
# method: PBM binding z-score (relative to random genomic background probes); higher = stronger binding; sequences stand for … in GC…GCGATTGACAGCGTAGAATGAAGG
Outcome label depends on PBM binding z-score relative to 0.5: at/above gives TRUE, below gives FALSE.

# count of solved cases: 5
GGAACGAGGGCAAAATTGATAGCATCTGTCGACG ... FALSE
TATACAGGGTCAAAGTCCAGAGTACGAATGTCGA ... TRUE
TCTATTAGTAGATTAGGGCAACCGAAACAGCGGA ... FALSE
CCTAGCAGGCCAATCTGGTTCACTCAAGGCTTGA ... FALSE
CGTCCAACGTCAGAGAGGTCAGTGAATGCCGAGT ... FALSE

Query: Has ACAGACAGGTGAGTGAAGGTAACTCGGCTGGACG a recorded PBM binding z-score greater than or equal to 0.5?
Result: FALSE

Query: Identify whether the reported PBM binding z-score of the following sequence is 0.5 or greater: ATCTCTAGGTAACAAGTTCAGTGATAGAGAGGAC
Result: TRUE

Query: Check this sequence for PBM binding z-score at or above 0.5: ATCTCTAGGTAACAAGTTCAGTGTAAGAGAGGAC
Result: TRUE

Query: Does the sequence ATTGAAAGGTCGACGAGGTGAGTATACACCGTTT have recorded PBM binding z-score that is 0.5 or more?
Result: TRUE

Query: Exam item: decide whether the reported PBM binding z-score for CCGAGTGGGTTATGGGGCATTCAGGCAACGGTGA is at least 0.5.
Result: FALSE

Query: Tell me whether PBM binding z-score is at least 0.5 here: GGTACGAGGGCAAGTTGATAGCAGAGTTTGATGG
Result: FALSE

Query: Determine whether measured PBM binding z-score meets or exceeds 0.5 for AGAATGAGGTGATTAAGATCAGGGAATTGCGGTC
Result: FALSE

====

# Tested on: RXRa homodimer (NR concentration 180 nM)
# method: PBM binding z-score (relative to random genomic background probes); higher = stronger binding; sequences stand for … in GC…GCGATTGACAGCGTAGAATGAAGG
Classes are defined on PBM binding z-score with ranges class 1 = under 0.6, class 2 = from 0.6 up to 2, class 3 = 2 and over

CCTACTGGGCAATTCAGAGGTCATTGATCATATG ... class 3

Query: // bin(item) where item = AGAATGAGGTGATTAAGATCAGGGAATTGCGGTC
Result: class 1

Query: Note: place this sequence into its band. Item: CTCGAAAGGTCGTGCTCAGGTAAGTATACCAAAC
Result: class 3

Query: // return the class label for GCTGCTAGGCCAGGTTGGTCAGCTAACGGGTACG
Result: class 1

====

# System: PPARg:RXRa 90nM:30nM, anti-RXR (NR concentration 90 nM, RXRa partner concentration 30 nM)
# method: PBM binding z-score (relative to random genomic background probes); higher = stronger binding; sequences stand for … in GC…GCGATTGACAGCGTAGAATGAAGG
reportedEndpoint: PBM binding z-score
# output: bare number, no unit

Here are 5 sequences together with their reported answers.
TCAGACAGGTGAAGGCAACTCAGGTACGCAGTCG ... 2.58
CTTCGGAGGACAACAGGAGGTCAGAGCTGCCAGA ... 0.051
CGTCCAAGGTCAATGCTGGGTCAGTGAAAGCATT ... 3.07
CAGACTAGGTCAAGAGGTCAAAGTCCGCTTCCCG ... 7.54
GATACAGGGTCAAAGCCAGAGTACGCGTATTGAT ... 4.25

// next item, PBM binding z-score requested
Query: Entry under review: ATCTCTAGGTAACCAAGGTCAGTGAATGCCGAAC . Reported PBM binding z-score?
Result: 1.39
